Origin of the recorded values: ChEMBL document CHEMBL1201862

- Test system: SW-620
- Experiment: NCI tumour cell line growth inhibition, 48 h
Calls of active or inactive are those of the source. No stated cut-off is given here; in the data, active = GI50 up to about 1.1 µM and inactive = higher.
Outcome codes: yes (1) = active, no (0) = inactive

| Molecule | Group |
| --- | --- |
| Cc1ccc(-c2nc(-c3cnccn3)n(C3OC(CO)C(O)C(O)C3O)n2)cc1 (stereo not given) | no (0) |
| CC(=O)/C(=N\O)C(=O)NCCc1ccccc1 | no (0) |
| NS(=O)(=O)c1nnc(NS(=O)(=O)C(F)(F)F)s1 | no (0) |
| CC(C1=CC=C2[C@@H]3CCC4CC(N(C)C)CC[C@]4(C)C3CC[C@]12C)N(C)C=O (stereo not given in full) | no (0) |
| CSc1nc(NC2OC(COC(C)=O)C(OC(C)=O)C(OC(C)=O)C2OC(C)=O)c(/N=C(\C)C(C)=O)c(=O)[nH]1 (stereo not given) | no (0) |
| N[C@@H]1CCN(c2c(F)cc3c(=O)c(C(=O)O)cn4c3c2Oc2c-4ccc3c2ccc2ccccc23)C1 | yes (1) |
| CC1(C)CCc2cc3c(cc2O1)OC(C)(C)CC3=O | no (0) |
| CCCCCCCCCCC(C(=O)O)C1(C(=O)O)CCC(=O)O1 (stereo not given) | no (0) |
| Cc1nc(C)c(N2CCN(C#N)CC2)c(O)n1 | no (0) |
| CCCCCN(CCCCC)CC(C)(C)C(O)c1ccc(OC)c2ccccc12 (stereo not given) | no (0) |

---

- Test system: HL-60
- Experiment: NCI tumour cell line growth inhibition, 48 h
Calls of active or inactive are those of the source. Rule as the data show it: active = GI50 up to about 1.1 µM and inactive = higher.
Outcome codes: 1 = active, -1 = inactive

| Compound | Experimental system | Group |
| --- | --- | --- |
| Cc1cc(S(=O)(=O)O)c(NC(=O)C(=O)Cc2cc(=O)oc3cc(O)ccc23)cc1Cl | HL-60 | -1 |
| Cc1ccc2c3c4c(ccc13)C(C)(C)OC4=C(C(C)C)C2=O | HL-60 | -1 |
| O=C1C2=C(c3ccccc31)C(c1ccc(Cl)cc1)NC(S)=N2 (stereo unspecified) | HL-60 | -1 |
| O=C1CSC(c2cccc(Cl)c2)N1c1ccc(-c2ccc(-n3c(-c4ccccc4)nc4ccccc4c3=O)cc2)cc1 (stereo unspecified) | HL-60 | -1 |
| CC(=O)C1C(=O)C(=O)N(c2ccccc2C(C)C)C1=O (stereo unspecified) | HL-60 | -1 |
| CN1COc2c(n(C)c(=O)[nH]c2=O)C1 | HL-60 | -1 |
| COC1=CC(=O)c2c(c(-c3csc(C)n3)cn2C)C1=O | HL-60 | -1 |
| CCCCCCCCCCC(C)CCCCCCC(=O)O (stereo unspecified) | HL-60 | -1 |
| CC/C(Cl)=N\OC(=O)Nc1ccccc1OC(F)(F)F | HL-60 | -1 |
| Cc1cc(N)ccc1/N=N\c1ccc(S(=O)(=O)CCOS(=O)(=O)O)cc1 | HL-60 | 1 |
| O=C1NC2(O)c3ccccc3C(=O)C2(O)N1c1ccccc1 (stereo unspecified) | HL-60 | -1 |
| Cn1cc(C(=O)c2ccccc2)cc(C(=O)c2ccccc2)c1=O | HL-60 | -1 |
| Cc1c2ccnc(-c3ccccc3)c2cc2c1[nH]c1ccccc12 | HL-60 | -1 |
| NNC(=O)Nc1nc2ccc(NN)cc2[nH]1 | HL-60 | -1 |
| CCCCCC/C(CC(=O)CCC(=O)NCCc1ccccc1)=N\NC(=O)c1ccc2ccccc2c1O | HL-60 | -1 |
| CCCCCN(CCCCC)CC(C)(C)C(O)c1ccc(OC)c2ccccc12 (stereo unspecified) | HL-60 | -1 |
| CCOC(=O)C(=CNc1ccc(S(N)(=O)=O)cc1)C(=O)OCC | HL-60 | -1 |
| c1ccc2c(Cc3nnc4sc(SSc5nn6c(Cc7c[nH]c8ccccc78)nnc6s5)nn34)c[nH]c2c1 | HL-60 | -1 |
| Clc1ccc(NCc2nnc(COc3ccc(OCc4nnc(CNc5ccc(Cl)cc5)o4)c(Cl)c3)o2)cc1 | HL-60 | -1 |
| CN(C)CCCCN1CCc2c(n(C)c3ccccc23)C1=O | HL-60 | -1 |
| CCN(CC)c1ccc2c(c1)Oc1ccc(N(C(C)=O)c3ccccc3)cc1C21OC(=O)c2ccccc21 (stereo unspecified) | HL-60 | -1 |
| Cc1csc2nc(-c3ccc([N+](=O)[O-])cc3)c(/C=N/N=C(N)N)n12 | HL-60 | -1 |
| Cc1sc2nc(N(C)C)oc(=O)c2c1C | HL-60 | -1 |
| Cc1cccc2c(N)c3cccc(C(=O)NCC[N+](C)(C)Cc4sccc4[N+](=O)[O-])c3nc12 | HL-60 | -1 |
| CCC(C(=O)c1ccccc1)C(CCCC(=O)Nc1c(C)cccc1C)N=O (stereo unspecified) | HL-60 | -1 |
| COC1=CC(=O)c2ccccc2C1(C)C1=NC(C)(C)CO1 (stereo unspecified) | HL-60 | -1 |
| COc1ccc(Oc2cccc(/C=C3/C(=O)Nc4ccccc43)c2)cc1 | HL-60 | -1 |
| N#C/C(=C\c1ccc(O)cc1O)C(N)=O | HL-60 | -1 |
| CC(C)=CCN1c2ccccc2[C@@]2(CC=C(C)C)CCN(C)[C@@H]12 [(+)-DEBROMOFLUSTRAMINE B] | HL-60 | -1 |
| CO/N=C1\CC(C)N2C(=O)C(C(C)C)NC(=O)C(NC(=O)c3c4nc5c(C(=O)NC6C(=O)NC(C(C)C)C(=O)N7C(C)CC(O)C7C(=O)N(C)CC(=O)N(C)C(C(C)C)C(=O)OC6C)ccc(C)c5oc-4c(C)c(=O)c3N)C(CO)OC(=O)C(C)N(C)C(=O)CN(C)C(=O)C12 (stereo unspecified) | HL-60 | 1 |
| NS(=O)(=O)c1nnc(NS(=O)(=O)C(F)(F)F)s1 | HL-60 | -1 |
| COc1nc2ncc([C@@H](OC(C)=O)[C@@H](COC(C)=O)OC(C)=O)nc2c(=O)[nH]1 | HL-60 | -1 |
| CC1(C)CC(=O)C2=C(C1)N(c1ccccc1)C1(O)C=CC(O)=C3C(=O)c4ccccc4C(=O)C321 (stereo unspecified) | HL-60 | -1 |
| COC(=O)/C(C#N)=C(/NCc1ccccc1)Nc1ccccc1 | HL-60 | -1 |
| C#CCn1c(=O)c(C)cn(/C(=C\C(=O)OCC)C(=O)OCC)c1=O | HL-60 | -1 |
| Nc1ncn([C@@H]2C=C(CO)C(O)C2O)c(=O)n1 (stereo partly specified) | HL-60 | -1 |
| CCOC(=O)/C([O-])=C(\C(=O)OCC)[n+]1c(C)n(C)c2ccccc21 | HL-60 | -1 |
| COC(=O)c1sc(=NC(=S)N2CCCCC2)sc1C(=O)OC | HL-60 | -1 |
| Cc1cc(Br)cc(C)c1NC(=O)C(=O)C(C(=O)c1ccc2ccccc2c1)C1OC(=O)c2ccccc21 (stereo unspecified) | HL-60 | -1 |
| C#CCN(CC#C)C(=O)C(=O)c1c[nH]c2ccc(OC)cc12 | HL-60 | -1 |
| [N-]=[N+]=CC(=O)c1ccccc1C#CCCc1ccccc1 | HL-60 | -1 |

---

- Test system: SK-MEL-5
- Experiment: NCI tumour cell line growth inhibition, 48 h
Calls of active or inactive are those of the source. No stated cut-off is given here; in the data, active = GI50 up to about 1.1 µM and inactive = higher.
Reported GI50 values are given for each entry in this list.
Observable: GI50

| Molecule | Observable | Reported |
| --- | --- | --- |
| CC(NC(=O)C(N)CC(=O)O)NC(=O)N(C)C(C)(C)C (stereo unspecified) | GI50 | > 100 µM (inactive) |
| CCOC(=O)C1=C(OC(OCC)C([Se]c2ccccc2)C(C)C)CCC1 (stereo unspecified) | GI50 | 13 µM (inactive) |
| C/C(CC(=O)Nc1ccc([N+](=O)[O-])cc1)=N/N=C(N)N | GI50 | > 100 µM (inactive) |
| CC(C)c1ccccc1NC(=O)C(=O)Cc1nc2ccccc2s1 | GI50 | > 100 µM (inactive) |
| Cc1cc(S(=O)(=O)O)c(NC(=O)C(=O)Cc2cc(=O)oc3cc(O)ccc23)cc1Cl | GI50 | > 100 µM (inactive) |
| O=S(=O)(C/C(=N\O)c1ccccc1)c1ccccc1 | GI50 | > 100 µM (inactive) |

---

- Test system: TK-10
- Experiment: NCI tumour cell line growth inhibition, 48 h
The source made the active and inactive calls. No stated cut-off is given here; in the data, active = GI50 up to about 1.1 µM and inactive = higher.
Reported GI50 values are given for each entry in this list.
Observable: GI50

| Molecule | Experimental system | Reported |
| --- | --- | --- |
| O=C(CC(C(=O)c1ccsc1)c1ccsc1)c1ccsc1 (stereo unspecified) | TK-10 | > 100 µM (inactive) |
| c1ccc2c(Cc3nnc4sc(SSc5nn6c(Cc7c[nH]c8ccccc78)nnc6s5)nn34)c[nH]c2c1 | TK-10 | 38.7 µM (inactive) |
| CCOP(=O)(OCC)C1=NC=CC=CC1n1c(-c2ccccc2)nn(CC)c1=O (stereo unspecified) | TK-10 | > 100 µM (inactive) |
| COc1ccc(Cc2coc3ccccc3c2=O)cc1OC | TK-10 | > 100 µM (inactive) |
| O=c1[nH]c2c3ccccc3ccc2c2cc3c(cc12)OCO3 | TK-10 | > 100 µM (inactive) |
| COc1ccc(O)cc1 | TK-10 | > 100 µM (inactive) |
| CC(C)c1cc(C(F)(F)F)nc(NNc2nc(C(C)C)cc(C(F)(F)F)n2)n1 | TK-10 | 19.1 µM (inactive) |
| NCCN(CCN)/[N+]([O-])=N/O | TK-10 | > 100 µM (inactive) |
| Cc1cc(S(=O)(=O)O)c(NC(=O)C(=O)Cc2cc(=O)oc3cc(O)ccc23)cc1Cl | TK-10 | > 100 µM (inactive) |
| Cn1c(=O)c2c(nc3n(Cc4ccccc4)c(=O)c(Br)cn23)n(C)c1=O | TK-10 | > 100 µM (inactive) |
| CN(C)c1ccc(/N=C2/NC(=N\c3ccccc3)/C(=N/c3ccccc3)S2)cc1 | TK-10 | 62.4 µM (inactive) |
